Biological target: Rhesus PDE2A3 (Macaca mulatta)
Sequence (B3VTJ2 1-941): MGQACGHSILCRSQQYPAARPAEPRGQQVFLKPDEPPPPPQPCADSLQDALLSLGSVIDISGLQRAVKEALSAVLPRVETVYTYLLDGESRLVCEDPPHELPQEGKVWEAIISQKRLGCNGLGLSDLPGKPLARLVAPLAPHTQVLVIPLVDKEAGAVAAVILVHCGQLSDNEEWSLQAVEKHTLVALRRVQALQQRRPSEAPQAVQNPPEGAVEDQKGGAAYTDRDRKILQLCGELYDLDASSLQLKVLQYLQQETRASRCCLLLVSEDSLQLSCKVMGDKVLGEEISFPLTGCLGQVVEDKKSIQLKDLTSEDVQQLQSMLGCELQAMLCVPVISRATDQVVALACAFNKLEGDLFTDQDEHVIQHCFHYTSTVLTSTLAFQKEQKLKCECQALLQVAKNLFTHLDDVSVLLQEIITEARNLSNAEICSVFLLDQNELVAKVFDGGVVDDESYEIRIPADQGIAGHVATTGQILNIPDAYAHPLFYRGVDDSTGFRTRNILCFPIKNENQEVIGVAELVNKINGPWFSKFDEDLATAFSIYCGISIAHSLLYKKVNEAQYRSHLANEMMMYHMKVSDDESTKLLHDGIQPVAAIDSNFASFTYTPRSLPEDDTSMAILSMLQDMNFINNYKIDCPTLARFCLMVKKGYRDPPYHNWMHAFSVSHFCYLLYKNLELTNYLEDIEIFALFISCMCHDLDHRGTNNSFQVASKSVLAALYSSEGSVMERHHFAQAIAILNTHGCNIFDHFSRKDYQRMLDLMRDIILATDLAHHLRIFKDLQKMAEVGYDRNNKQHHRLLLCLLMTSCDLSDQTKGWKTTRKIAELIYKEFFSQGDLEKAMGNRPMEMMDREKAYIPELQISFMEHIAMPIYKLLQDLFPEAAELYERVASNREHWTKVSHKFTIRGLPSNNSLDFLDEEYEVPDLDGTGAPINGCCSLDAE
Assay: PDE2 fluorescence polarization (IMAP FP) assay, rhesus PDE2A3
Assay type: biochemical, rhesus macaque
Conditions: Lab B, read-out: Rhesus PDE2 Ki (nM) Lab B
Measurement Label: Ki (nM)

Worked examples follow.
CC(c1ccc(OC(F)(F)F)c(F)c1)n1nc(CC#N)c2c(=O)[nH]c(O)nc21 (single isomer, unassigned) [Example 299] | 21
CC(C)C(c1ccc(C(F)(F)F)c(F)c1)n1nc(CF)c2c(=O)[nH]c(N(C)C)nc21 (single isomer, unassigned) [Example 221] | 0.067

1 = CN(C)c1nc2c(c(CF)nn2C(c2ccc(OC(F)F)c(F)c2)C2CC2)c(=O)[nH]1 (single isomer, unassigned) [Example 189]
2 = O=c1[nH]c(O)nc2c1c(CC(F)(F)F)nn2C(c1ccc(OC(F)(F)F)cc1)C1CC1 (single isomer, unassigned) [Example 243]
3 = CC(C)C(c1ccc(C(C)(F)F)c(F)c1)n1nc(CF)c2c(=O)[nH]c(N(C)C)nc21 (single isomer, unassigned) [Example 218]
4 = CC(c1ccc(C(C)(C)C)cc1)n1nc(CF)c2c(=O)[nH]c(N(C)C)nc21 (single isomer, unassigned) [Example 170]
5 = CC(C)(C)C(c1ccc(C(F)(F)F)cc1)n1nc(CC(F)(F)F)c2c(=O)[nH]c(O)nc21 (single isomer, unassigned) [Example 263]
Returns the items ordered by Ki, from maximum to minimum. Sort the labels as requested; that list is your answer. 5, 2, 4, 1, 3
(5: 5890 nM, 2: 191 nM, 4: 11 nM, 1: 0.62 nM, 3: 0.21 nM)

A = C[C@@H](c1ccc(C(F)(F)F)cc1)n1nc(COCc2ccccc2)c2c(=O)[nH]c(O)nc21
B = CC(C)C(c1ccc(OC(F)F)cc1)n1nc(CF)c2c(=O)[nH]c(N(C)C)nc21 (single isomer, unassigned) [Example 184]
Lower value for measured Ki? Options: A , B # answer = label of selected item B
(B: 0.24 nM, A: 206 nM)

* * *

Target: UniProt:O00408
Sequence (O00408 other isoform, or with tags, fused parts or gaps): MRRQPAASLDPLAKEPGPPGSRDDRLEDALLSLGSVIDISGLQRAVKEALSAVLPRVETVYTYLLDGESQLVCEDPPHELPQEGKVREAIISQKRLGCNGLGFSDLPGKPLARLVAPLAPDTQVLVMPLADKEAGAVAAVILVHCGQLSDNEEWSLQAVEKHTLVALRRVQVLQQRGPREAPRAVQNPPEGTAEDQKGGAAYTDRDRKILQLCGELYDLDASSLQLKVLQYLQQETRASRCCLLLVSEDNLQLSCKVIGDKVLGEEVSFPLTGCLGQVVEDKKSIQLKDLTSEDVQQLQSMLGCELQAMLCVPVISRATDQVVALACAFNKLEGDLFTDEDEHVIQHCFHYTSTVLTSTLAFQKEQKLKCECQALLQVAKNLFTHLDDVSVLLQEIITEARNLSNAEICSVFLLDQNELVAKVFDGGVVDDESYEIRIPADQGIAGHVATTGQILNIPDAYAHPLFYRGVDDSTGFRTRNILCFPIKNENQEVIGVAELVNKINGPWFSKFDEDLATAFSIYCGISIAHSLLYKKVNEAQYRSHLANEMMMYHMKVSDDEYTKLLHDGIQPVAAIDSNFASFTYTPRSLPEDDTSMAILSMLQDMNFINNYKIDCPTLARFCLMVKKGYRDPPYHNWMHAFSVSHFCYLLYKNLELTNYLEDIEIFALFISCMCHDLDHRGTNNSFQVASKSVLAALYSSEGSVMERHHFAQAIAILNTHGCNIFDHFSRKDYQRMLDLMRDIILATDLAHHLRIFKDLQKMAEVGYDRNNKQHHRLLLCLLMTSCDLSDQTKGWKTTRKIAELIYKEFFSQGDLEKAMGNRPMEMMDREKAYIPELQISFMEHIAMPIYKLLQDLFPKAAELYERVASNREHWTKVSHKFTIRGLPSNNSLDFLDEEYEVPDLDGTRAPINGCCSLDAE
Experiment: PDE selectivity IMAP FP assay, human PDE2A1
Format: biochemical
Details: Human PDE2; Lab B; read-out: Human PDE2 Ki (nM) Lab B
Measurement Label: Ki (nM)

Worked examples follow.
CN(C)c1nc2c(c(CO)nn2C(c2ccc(CC(F)(F)F)c(F)c2)C2CC2)c(=O)[nH]1 (single isomer, unassigned) [Example 94] | 0.14
CN(C)c1nc2c(c(CO)nn2C(c2ccc(C(F)F)c(F)c2)C2CC2)c(=O)[nH]1 (single isomer, unassigned) [Example 152] | 0.57

1 = CCC(c1ccc(C(F)F)cc1F)n1nc(CF)c2c(=O)[nH]c(N(C)C)nc21 (single isomer, unassigned) [Example 348]
2 = CC(c1ccc(S(F)(F)(F)(F)F)cc1)n1nc(C(F)(F)F)c2c(=O)[nH]c(O)nc21 (single isomer, unassigned) [Example 311]
3 = CC(c1ccc(C(F)(F)F)cc1F)n1nc(CF)c2c(=O)[nH]c(N(C)C)nc21 (single isomer, unassigned) [Example 186]
Returns the items ordered by Ki, from maximum to minimum. Sort the labels as requested; that list is your answer. 2, 3, 1

1 = CC(C)C(c1ccc(OC(F)F)cc1)n1nc(CO)c2c(=O)[nH]c(N(C)C)nc21 (single isomer, unassigned) [Example 121]
2 = CN(C)c1nc2c(c(CO)nn2C(c2ccc(OC(F)F)cc2)C2CC2)c(=O)[nH]1 (single isomer, unassigned) [Example 128]
3 = CC(c1ccc(C(F)F)c(F)c1)n1nc(CO)c2c(=O)[nH]c(N(C)C)nc21 (single isomer, unassigned) [Example 105]
Order the records, beginning with the lowest Ki and ending with the highest. Sort the labels as requested; that list is your answer. 1, 2, 3

1 = CCC(c1ccc(OC(F)F)c(F)c1)n1nc(CO)c2c(=O)[nH]c(N(C)C)nc21 (single isomer, unassigned) [Example 127]
2 = CCC(c1ccc(C(F)F)cc1F)n1nc(CF)c2c(=O)[nH]c(N(C)C)nc21 (single isomer, unassigned) [Example 349]
Which item exceeds the other in Ki, 1 or 2 ? # answer = label of selected item 2
(2: 4 nM, 1: 0.81 nM)

A = CN(C)c1nc2c(c(CF)nn2C(c2ccc(C(F)(F)F)cc2)C2CC2)c(=O)[nH]1 (single isomer, unassigned) [Example 178]
B = O=c1[nH]c(O)nc2c1c(C(F)(F)F)nn2C1(c2ccc(C(F)(F)F)cc2)CC1 [Example 354]
Which item exceeds the other in Ki, A or B ? # answer = label of selected item B
